assay: yeast display, Sf9 membrane polyspecificity reagent, FACS + sequencing; frameworks hold sequencing errors
attribute-measured: polyreactivity (PSR sort gate)

QVQLQESGGGLVQAGGSMRLSCAASGSISELRPMGWYRQAPCKQRELDAGISTGGSTNYADSVKGRFTISRDNAKNTVYLQMNSLKPEDTAVYYCASASYGEGTYDYWGQGTQVTVRS = high polyreactivity
QVQLVESGGGLVQAGGSLRLSCAASGITFERYVMGWYIQAPGKERELVASISRSGSTFYADSVKGRFTISRDNAKNTVYLQMNSLKPEDTAVYYCNADRFWFHWVYSRYHYDYWGQGTQVTVSS = high polyreactivity
QVQLVESGGGLVQAGASLRLICAASGSTFQGNAIGWNRQAPGKERELVAAISRSGGSTYADSVKGRFTISRDNAKNTVYLQLNSLKPEDTAVYYCAAYSGVGYLWFDYWGQGTQVTVSS = low polyreactivity
QVQLVESGGGLVQAGGSLRLSCAASGRTFSKYAMGWYRQAPGKERELVAAIRWSGGSTYYADSVKGRFTISRDNAKNTVYLQMNSLKPEDTAVYYSAKRSRGLKFDYWGLGTQVTVSS = high polyreactivity
QVQLVESGGGLVQAGGSLRLSCAASGFIFQRYAMGWYRQAPGKERELVAAISSGGGTNYADSVKGRFTISRDNAKNTVYLQMNSLKPEDTAVYYCARPYYVYSQSSDYWGQGTQVTVSS = low polyreactivity

Hello, the source for this data is the nanobody polyreactivity screen of Harvey et al. (2022), in case you need it.
